What MIC was measured for each of the following?
# Test system: Pseudomonas aeruginosa
# method_description: Antibacterial activity against Pseudomonas aeruginosa ATCC 27853 assessed as inhibition of bacterial growth measured after 24 hrs incubation
# Type: functional
Give bare numbers, in µg/mL.

Some compounds with recorded MIC:
CCn1cc(C(=O)O)c(=O)c2cc(F)c(N3CCN(C(=O)/C(C#N)=C/c4cn(CC(N)=O)c5ccccc45)CC3)cc21    1
CCCCn1cc(/C=C(\C#N)C(=O)N2CCN(c3cc4c(cc3F)c(=O)c(C(=O)O)cn4CC)CC2)c2ccccc21    1
CCCCCn1cc(/C=C(\C#N)C(=O)N2CCN(c3cc4c(cc3F)c(=O)c(C(=O)O)cn4CC)CC2)c2ccccc21    0.5

Okay, next one:
Q: Suppose we examine the compound "CCCCCCCCn1cc(C(=O)O)c(=O)c2cc(F)c(N3CCN(C(=O)/C(C#N)=C/c4cn(CC(=O)OCC)c5ccccc45)CC3)cc21" ; what MIC value has been reported?
Ans: 16
